# plate-normalized OD600 growth per record follows
system: Escherichia coli BW25113; test: plate-normalized OD600 growth (mean of duplicates) (OD600 (normalized)); higher = more growth (less inhibition); details: temperature: 15°C; 48 h; 10 µM
Whole data set: some 1,600 compounds, median “plate-normalized OD600 growth (mean of duplicates)” near 0.31, cut for the lowest 2% near 0.23. What follows is part of a selection rich in the lowest values, with near analogues and random picks from the rest.
Give your answer as a number; write no unit.

>>> print(df.to_string())
                                   compound               measurement_type  value_measured
0     CC(=O)Nc1ccc(S(=O)(=O)N2CCN(C)CC2)cc1  plate-normalized OD600 growth           0.258
1  Cc1ccsc1CN1CCN(c2ccc([N+](=O)[O-])cc2)CC1  plate-normalized OD600 growth           0.256
2  O=[N+]([O-])c1ccc2[nH]c3c(c2c1)CCCC3NC1CCN(CCc2ccccc2)CC1 (centres undefined)  plate-normalized OD600 growth           0.249
3  CC1(C)CC(=O)C2=C(C1)Nc1ccccc1NC2c1ccccc1F (centres undefined)  plate-normalized OD600 growth            0.25
4      COc1cc2c(cc1NC(=O)C(Cl)Cl)oc1ccccc12  plate-normalized OD600 growth           0.232
5  CC1(C)CC(=O)c2c(CC3CC(=O)NC(=O)C3)noc2C1  plate-normalized OD600 growth           0.222
6        COc1ccc(NC(=O)Nc2ccc(F)c(Cl)c2)cc1  plate-normalized OD600 growth           0.283
7  O=C(c1ccco1)N1CCN(c2ccc([N+](=O)[O-])cc2)CC1  plate-normalized OD600 growth           0.244
8  O=C(c1ccc(Br)o1)N1CCN(c2ccc([N+](=O)[O-])cc2)CC1  plate-normalized OD600 growth           0.262
9  CC(=O)N1c2ccccc2NC2=C(C(=O)CC(C)(C)C2)C1c1cccn1C (centres undefined)  plate-normalized OD600 growth           0.253

Quote Escherichia coli BW25113 plate-normalized OD600 growth for entry CC1=C(C#N)C(c2ccc(N(C)C)cc2)C2=C(CCCC2=O)N1 (centres undefined) .
0.248

Quote Escherichia coli BW25113 plate-normalized OD600 growth for entry COc1ccc(-c2csc(N)n2)cc1Br .
0.26

Quote Escherichia coli BW25113 plate-normalized OD600 growth for entry CC(C)(C)NC(=O)c1ccccc1C(=O)NC(C)(C)C .
0.263

Quote Escherichia coli BW25113 plate-normalized OD600 growth for entry CCOC(=O)N1CCN(Cc2ccccc2Cl)CC1 .
0.244

Quote Escherichia coli BW25113 plate-normalized OD600 growth for entry NC1CCCc2c1[nH]c1ccc([N+](=O)[O-])cc21 (centres undefined) .
0.173

Quote Escherichia coli BW25113 plate-normalized OD600 growth for entry N#CC1=C(N)OC2=C(C(=O)CCC2)C1c1cccnc1 (centres undefined) .
0.238

Quote Escherichia coli BW25113 plate-normalized OD600 growth for entry COc1cc(C(=O)n2c(C)nc3ccccc32)cc(OC)c1OC .
0.246

Quote Escherichia coli BW25113 plate-normalized OD600 growth for entry O=C(O)CCCC(=O)Nc1ccc(Cl)c(Cl)c1 .
0.247
